Values compiled from PubChem BioAssay.

- Assay explanation: AML differentiation inducers, ER-HoxA9 marrow cells – cell-based, GFP/MAC1 double positive, flow cytometry, validation set, primary screen (AID 588685);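 also: compound exposure lasts four days before antibody staining and flow analysis; 0% = DMSO wells and 100% = 5 µM fulvestrant positive control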
- Condition context: stronger effect = higher value, normalized: vehicle 0, fulvestrant 100
Measurement type: differentiation response (%)

| Compound | Measurement type | Measurement unit | Number |
| --- | --- | --- | --- |
| CC[N+](C)(C)c1cccc(O)c1 | differentiation response | % | 7.09 |
| COc1ccccc1N1C(=O)C2CC(C)=C(C)CC2C1=O (stereo not given) | differentiation response | % | -3.4 |
| COc1ccc(CCN2C(=O)CSC2c2ccc(OC)c(OC)c2)cc1OC (stereo not given) | differentiation response | % | 21.6 |
| CCO/C([O-])=N/c1c[n+](N2CCOCC2)no1 | differentiation response | % | -0.18 |
| O=C(O)C(O)c1ccccc1 (stereo not given) | differentiation response | % | -3.11 |
| CC(C)CN1CCN(Cc2cccn2-c2ccccn2)CC1CCO (stereo not given) | differentiation response | % | 1.64 |
| CC(C)Oc1cccc(C(=O)N2CCCC2)c1 | differentiation response | % | 9.04 |
| CC12CC(c3ccccc3O1)C(C(=O)N1CCOCC1)C(=O)N2 (stereo not given) | differentiation response | % | -1.88 |
| c1coc(-c2nnc3n2C2(CCCC2)Cc2ccccc2-3)c1 | differentiation response | % | 3.28 |
| CC(C)(C)C(=O)N1CCCC1C(=O)O (stereo not given) | differentiation response | % | 11.8 |
| COc1ccccc1NC(=O)Cn1c(C)cc(=O)c2cccc(OC)c21 | differentiation response | % | -5.68 |
| O=C(O)CCCN1C(=O)NC2NC(=O)NC21 (stereo not given) | differentiation response | % | 33.5 |
| O=C(O)CCCCCN1C(=O)C(=O)/C(=C(/O)c2ccccc2)C1c1ccccc1 (stereo not given) | differentiation response | % | 7.2 |
| O=C(O)CCC(=O)c1ccc(-c2ccccc2)cc1 | differentiation response | % | -11.9 |
| O=C(N/N=C/c1ccc([N+](=O)[O-])o1)c1ccc(O)cc1 | differentiation response | % | 14.7 |
| O=C1c2ccccc2C(=O)N1/N=C/c1ccc(Oc2ccc([N+](=O)[O-])cn2)cc1 | differentiation response | % | -7.57 |
| Cn1c(=O)[nH]c(=O)c2c1nc(NCc1ccco1)n2CCCc1ccccc1 | differentiation response | % | -3.67 |
| C[C@H](NC(=O)C1(c2ccccc2)CCN(C(=O)[C@H]2CSCN2C(=O)OC(C)(C)C)CC1)C(=O)O | differentiation response | % | -1.05 |
| Cc1cc(OCC(=O)C(C)(C)C)c2c(C)c(C)c(=O)oc2c1 | differentiation response | % | 4 |
| COC(=O)c1[nH]c(=O)c2ccccc2c1O | differentiation response | % | 18.4 |
| Cc1cc(C)nc(NS(=O)(=O)c2ccc(N)cc2)n1 | differentiation response | % | 6.11 |
| CC(C)CC(=O)NC(NC(=O)CC(C)C)c1cccc([N+](=O)[O-])c1 | differentiation response | % | -8.96 |
| COc1cc2c(cc1OC)-c1cc(NC3CCCCCC3)nc(=O)n1CC2 | differentiation response | % | 7.09 |
| Cc1c(O)c(=O)ccn1C | differentiation response | % | -3.28 |
| c1ccc(Nc2ccccn2)nc1 | differentiation response | % | 7.2 |

====

- Target system: ATP-binding cassette sub-family B member 6 (Homo sapiens)
- Assay explanation: blockers of ABCB6-driven porphyrin uptake – K562-ABCB6 cells, flow cytometry, validation set, pilot screen (AID 588550);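 also: 0% = DMSO wells and 100% = benzethonium chloride 70 µM positive control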
- Condition context: K562-ABCB6 porphyrin accumulation, 1 h, at 10 µM, stronger effect = higher value
A collection of molecules and their measured inhibition

| Molecule | inhibition / % |
| --- | --- |
| CC(=O)C1=C(O)C(=O)N(CC(=O)O)C1c1ccccc1Cl (stereo unspecified) | 13 |
| CC(C)Cc1ccc(C(C)C(=O)O)cc1 (stereo unspecified) | 5 |
| COc1cc(NS(=O)(=O)c2ccc(N)cc2)nc(OC)n1 | -1 |
| Nc1nc2c(nc(SCc3ccccc3Br)n2C2OC(CO)C(O)C2O)c(=O)[nH]1 (stereo unspecified) | 1 |
| Cc1ccc(S(=O)(=O)NC(C(=O)Oc2ccc3c(C(F)(F)F)cc(=O)oc3c2)c2ccccc2)cc1 (stereo unspecified) | -3 |
| c1ccc2c(c1)CCOC2CNCCCN1CCCCC1 (stereo unspecified) | -2 |

====

- Tested on: Ras-related protein Rab-7a (dog), GTP binding
- Assay explanation: blockers of fluorescent GTP binding to Rab7 – biochemical, wildtype, multiplex bead flow cytometry, dose response (AID 1336)
- Condition context: bead-based flow cytometry; series mostly up to 100 µM
Measured potencies and affinities stand elsewhere. Calls of active or inactive are those of the source. The rule behind the calls is not given here.
Measurement type: GTP binding, % of control

| Structure smiles | Target system | Result |
| --- | --- | --- |
| O=[N+]([O-])c1ccccc1/C=C/C=N/n1c(-c2ccco2)n[nH]c1=S | Ras-related protein Rab-7a (dog), GTP binding | inactive |
| Nc1nonc1-c1nc2ccccc2n1CC(=O)N/N=C/c1ccc(-c2ccccc2C(=O)O)o1 | Ras-related protein Rab-7a (dog), GTP binding | inactive |
| Cc1noc(NS(=O)(=O)c2ccc(NC(=O)CSc3nnc4c(n3)[nH]c3ccccc34)cc2)c1C | Ras-related protein Rab-7a (dog), GTP binding | inactive |
| COc1ccc(C(=O)Nc2cc(Cl)ccc2C(=O)O)cc1 | Ras-related protein Rab-7a (dog), GTP binding | inactive |
| COc1ccc(CC2(CO)CCN(S(=O)(=O)c3sccc3C)CC2)cc1 | Ras-related protein Rab-7a (dog), GTP binding | inactive |
| CCOc1cc(/C=N/NC(=O)CSc2cccc3cccnc23)ccc1O | Ras-related protein Rab-7a (dog), GTP binding | inactive |
| CCN1C(=O)/C(=C/C=C2/Sc3ccc4ccccc4c3N2CCO)SC1=S | Ras-related protein Rab-7a (dog), GTP binding | inactive |
| Cn1nnnc1Sc1ncnc2scc(-c3ccc(F)cc3)c12 | Ras-related protein Rab-7a (dog), GTP binding | inactive |
| O=C(O)c1ccc(CNCc2cccc(Cl)c2)s1 | Ras-related protein Rab-7a (dog), GTP binding | inactive |
| O=C(CN1C(=O)S/C(=C/c2cccnc2)C1=O)N1CCOCC1 | Ras-related protein Rab-7a (dog), GTP binding | inactive |
| CCOc1ccc(NC(=S)N=Nc2c(O)[nH]c3ccccc23)cc1 | Ras-related protein Rab-7a (dog), GTP binding | inactive |
| C=CC#CC[N+]1(CC#Cc2ccccc2)CCOCC1 | Ras-related protein Rab-7a (dog), GTP binding | inactive |
| COc1cc2[nH]c(=S)nc(NCCc3ccc(C)cc3)c2cc1OC | Ras-related protein Rab-7a (dog), GTP binding | inactive |

====

- System: Ras-related protein Rab-7a (dog), GTP binding
- Assay explanation: blockers of fluorescent GTP binding to Rab7 – biochemical, wildtype, multiplex bead flow cytometry, dose response (AID 1336)
- Condition context: bead-based flow cytometry; series mostly up to 100 µM
Measured potencies and affinities stand elsewhere. Activity calls are given as the source filed them. How the calls were made is not given here.

| Compound | GTP binding, % of control |
| --- | --- |
| CC(C)(C)c1ccc(C(=O)CC(Sc2ccc(Cl)cc2)C(=O)O)cc1 (configuration not stated) | inactive |
| CC(C)CCNC(=O)Cc1ccc(Nc2nc(=S)[nH]c3ccccc23)cc1 | inactive |
| COc1ccc(/C=C(/C#N)C(=O)Nc2ccc(O)cc2)cc1C(=O)O | inactive |
| CCCCCCn1nc(C(=O)OCC(=O)c2c(N)n(C)c(=O)n(C)c2=O)c2ccccc2c1=O | inactive |
| CN(/N=C/c1ccco1)C1=NS(=O)(=O)c2ccccc21 | inactive |
| O=C(O)c1ccccc1OCc1ccccc1Br | inactive |
| COc1cc(/C=N/NC(=O)Nc2cccc3nsnc23)cc(OC)c1OC | inactive |
| C/C=C/c1ccccc1OCc1ccc(C(=O)O)o1 | inactive |
| Cc1cccn2c(=O)c(/C=C3\SC(=S)N(CC(C)C)C3=O)c(NCCCOC(C)C)nc12 | inactive |
| Cc1ccc(C)c(N2CCN(C(=O)CN(C)S(=O)(=O)c3ccc4c(c3)CCC(=O)N4)CC2)c1 | inactive |
| O=C(O)Cn1c(SCCOc2ccccc2Cl)nc2ccccc21 | inactive |
| COc1cccc(-n2nc3c(-n4ncc(C#N)c4N)nnc(C)c3c2C)c1 | inactive |
| Cc1ccc2c(c1)c1nnc(SCC(=O)N3CCCc4ccccc43)nc1n2CC(=O)O | inactive |
| O=C(Nn1cc(C(=O)N2CCN(c3ccccc3F)CC2)c2ccccc2c1=O)c1cnccn1 | inactive |
| CC(C)(C)NC(=O)c1ccc2nsnc2c1 | inactive |
| Cc1nn(Cc2ccccc2)c(C)c1NC(=O)CSc1nc2c(c(C(F)(F)F)n1)CCc1ccccc1-2 | inactive |
| CS(=O)(=O)c1ccc(C(=O)OCC(=O)NC(=O)C2CCCCC2)cc1[N+](=O)[O-] | inactive |
| COc1ccccc1Oc1ccccc1C(=O)O | inactive |
| CCN1C(=O)C(CC(=O)Nc2ccc(F)cc2)N(CCc2ccc(OC)cc2)C1=S (configuration not stated) | inactive |
| COc1ccc(CNc2nc3c(c(=O)n(Cc4ccc(Cl)cc4)c(=O)n3C)n2C)cc1 | inactive |
| COc1ccc(CCn2c(C(C)C)nc3c(c(=O)c4ccccc4n3C)c2=O)cc1 | inactive |
| Cc1ccc(CSc2nc3[nH]ncc3c(=O)[nH]2)cc1 | inactive |
